Where these numbers come from: patent US11878975B2

# experimentalSystem: human TLR7 (Homo sapiens, UniProt Q9NYK1)
# Sequence (Q9NYK1 27-1049): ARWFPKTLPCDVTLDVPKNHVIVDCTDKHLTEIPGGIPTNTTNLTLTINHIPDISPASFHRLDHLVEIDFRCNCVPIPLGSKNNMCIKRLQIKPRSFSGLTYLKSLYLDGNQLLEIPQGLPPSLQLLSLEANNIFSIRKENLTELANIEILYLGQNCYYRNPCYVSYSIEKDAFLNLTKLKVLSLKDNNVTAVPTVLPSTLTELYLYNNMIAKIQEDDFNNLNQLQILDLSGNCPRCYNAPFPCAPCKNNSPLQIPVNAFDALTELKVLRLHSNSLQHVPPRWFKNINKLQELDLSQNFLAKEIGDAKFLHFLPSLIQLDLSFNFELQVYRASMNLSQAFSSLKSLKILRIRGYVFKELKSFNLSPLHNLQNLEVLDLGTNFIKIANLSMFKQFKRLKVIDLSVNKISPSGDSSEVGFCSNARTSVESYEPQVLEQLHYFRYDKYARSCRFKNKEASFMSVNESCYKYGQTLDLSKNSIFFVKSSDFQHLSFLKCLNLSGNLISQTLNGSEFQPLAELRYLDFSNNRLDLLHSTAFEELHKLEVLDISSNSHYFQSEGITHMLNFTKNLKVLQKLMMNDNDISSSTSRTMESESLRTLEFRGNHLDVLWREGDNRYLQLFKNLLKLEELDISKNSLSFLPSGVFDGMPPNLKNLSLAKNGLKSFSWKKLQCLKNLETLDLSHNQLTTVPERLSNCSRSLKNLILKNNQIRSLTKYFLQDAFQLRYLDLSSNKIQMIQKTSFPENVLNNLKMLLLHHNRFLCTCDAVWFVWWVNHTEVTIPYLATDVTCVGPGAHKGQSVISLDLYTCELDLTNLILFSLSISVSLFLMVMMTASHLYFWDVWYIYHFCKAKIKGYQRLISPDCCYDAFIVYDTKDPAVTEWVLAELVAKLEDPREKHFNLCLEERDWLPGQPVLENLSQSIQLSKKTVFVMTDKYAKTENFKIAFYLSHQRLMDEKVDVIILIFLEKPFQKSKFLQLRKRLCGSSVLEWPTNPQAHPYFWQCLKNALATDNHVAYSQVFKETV
# protocolText: TLR7 inhibition reporter assay (HEK-Blue cells, SEAP reporter, gardiquimod stimulation)
# conditionSet: HEK-Blue cells overexpressing human TLR7, SEAP reporter, gardiquimod 7.5 μM
# Source text: TLR7/8/9 Inhibition Reporter Assays HEK-Blue™-cells (Invivogen) overexpressing human TLR7, TLR8 or TLR9 receptors were used for screening inhibitors of these receptors using an inducible SEAP (secreted embryonic alkaline phosphatase) reporter gene under the control of the IFN-β minimal promoter fused to five NF-κB and AP-1-binding sites. […]
For each entry below, report its pIC50 value.
Answers are plain numbers, as −log10 of the molar value.

>  <compound>
Cc1c(-c2[nH]c3ccc(C4CN(Cc5ncn(C)n5)C4)cc3c2C(C)C)cn2cnnc2c1C

>  <pIC50>
7.29

$$$$
>  <compound>
CCN(C)C1CCC(c2ccc3[nH]c(-c4cn5ncnc5c(C)c4C)c(C(C)C)c3c2)CC1 (stereo not shown) [Example 87]

>  <pIC50>
9.49

$$$$
>  <compound>
Cc1cc(-c2[nH]c3ccc(C4CCCN(C(=O)CN5CCOCC5)C4)cc3c2C(C)C)cc(C)n1 (stereo not shown) [Example 197]

>  <pIC50>
8.70

$$$$

Continue with the next compound.
Q: Need pIC50 of Cc1cc(-c2[nH]c3ccc(C4CN(CCS(C)(=O)=O)CCO4)cc3c2C(C)C)cn2ncnc12 (stereo not shown) [Example 344] , thanks.
Ans: 8.15

---

# experimentalSystem: UniProt:Q9NR97
# Sequence (Q9NR97 27-1041): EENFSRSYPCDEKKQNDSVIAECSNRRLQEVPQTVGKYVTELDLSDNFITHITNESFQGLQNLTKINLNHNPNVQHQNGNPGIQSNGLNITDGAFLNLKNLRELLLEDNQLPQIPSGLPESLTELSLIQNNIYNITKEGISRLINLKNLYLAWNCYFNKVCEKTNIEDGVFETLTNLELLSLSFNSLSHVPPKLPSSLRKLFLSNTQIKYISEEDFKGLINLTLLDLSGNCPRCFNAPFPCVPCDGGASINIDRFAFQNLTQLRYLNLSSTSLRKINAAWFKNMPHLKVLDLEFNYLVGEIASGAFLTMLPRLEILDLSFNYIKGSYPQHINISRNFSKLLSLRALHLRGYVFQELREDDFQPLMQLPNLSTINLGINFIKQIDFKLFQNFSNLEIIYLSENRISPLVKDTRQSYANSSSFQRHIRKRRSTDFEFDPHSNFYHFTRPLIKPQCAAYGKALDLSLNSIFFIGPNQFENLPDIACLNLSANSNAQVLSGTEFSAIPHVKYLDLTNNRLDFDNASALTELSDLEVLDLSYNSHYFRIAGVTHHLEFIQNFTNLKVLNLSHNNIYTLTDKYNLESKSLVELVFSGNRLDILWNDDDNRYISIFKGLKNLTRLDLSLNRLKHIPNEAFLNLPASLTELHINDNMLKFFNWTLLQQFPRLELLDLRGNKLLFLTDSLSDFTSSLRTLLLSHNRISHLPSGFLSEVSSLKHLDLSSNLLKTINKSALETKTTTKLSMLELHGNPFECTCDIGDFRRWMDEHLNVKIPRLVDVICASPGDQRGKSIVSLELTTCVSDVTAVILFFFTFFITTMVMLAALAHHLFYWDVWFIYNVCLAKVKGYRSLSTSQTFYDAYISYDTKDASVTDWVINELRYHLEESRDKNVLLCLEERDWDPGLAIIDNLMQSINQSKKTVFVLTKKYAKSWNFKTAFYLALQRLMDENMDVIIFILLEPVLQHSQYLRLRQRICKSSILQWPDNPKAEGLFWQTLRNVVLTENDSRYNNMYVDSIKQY
# protocolText: TLR8 inhibition reporter assay (HEK-Blue cells, SEAP reporter, R848 stimulation)
# conditionSet: HEK-Blue cells overexpressing human TLR8, SEAP reporter, R848 15.9 μM
# y = IC50 below 20 nM (exclusive); n = IC50 at/above 20 nM

Recorded results for 3 compounds are shown here.
>  <compound>
Cc1cc(-c2[nH]c3ccc(C4CN(CCS(C)(=O)=O)C4)cc3c2C(C)C)cn2ncnc12 [Example 264]

>  <experimentalSystem>
UniProt:Q9NR97

>  <classLabel>
y

$$$$
>  <compound>
Cc1cc(-c2[nH]c3ccc(C4CN(CCS(C)(=O)=O)C(C)(C)CO4)cc3c2C(C)C)cn2ncnc12 (stereo not shown) [Example 384]

>  <experimentalSystem>
UniProt:Q9NR97

>  <classLabel>
y

$$$$
>  <compound>
CNC(=O)CNC1CCC(c2ccc3[nH]c(-c4cc(OC)c5ncnn5c4)c(C(C)C)c3c2)CC1 (stereo not shown) [Example 167]

>  <experimentalSystem>
UniProt:Q9NR97

>  <classLabel>
y

$$$$

Q: IC50 under 20 nM? Item: Cc1c(-c2[nH]c3ccc(C4CC5CN(CC6(C)COC6)CC5C4)cc3c2C(C)C)cn2cnnc2c1C (stereo not shown) [Example 561]
Ans: n

Q: In the record for Cc1cc(-c2[nH]c3ccc(C4CN(CCS(C)(=O)=O)CCO4)cc3c2C(C)C)cn2ncnc12 (stereo not shown) [Example 343] , is IC50 less than 20 nM?
Ans: n

Q: Dear reviewer, please state whether COc1cc(-c2[nH]c3ccc(C4CCC(NC(=O)CNCC5COC(C)(C)O5)CC4)cc3c2C(C)C)cn2ncnc12 (stereo not shown) [Example 136] has IC50 strictly beneath 20 nM.
Ans: y

Q: Hi there! Is IC50 for Cc1cc(-c2[nH]c3ccc(C4CCC(C)(O)CC4)cc3c2C(C)C)cc(C)n1 (single isomer, unassigned) [Example 169] below 20 nM, do you know?
Ans: n
